targetOfAssay: Intestinal-type alkaline phosphatase (Homo sapiens) (UniProt P09923)
Sequence (P09923 whole entry, looked up): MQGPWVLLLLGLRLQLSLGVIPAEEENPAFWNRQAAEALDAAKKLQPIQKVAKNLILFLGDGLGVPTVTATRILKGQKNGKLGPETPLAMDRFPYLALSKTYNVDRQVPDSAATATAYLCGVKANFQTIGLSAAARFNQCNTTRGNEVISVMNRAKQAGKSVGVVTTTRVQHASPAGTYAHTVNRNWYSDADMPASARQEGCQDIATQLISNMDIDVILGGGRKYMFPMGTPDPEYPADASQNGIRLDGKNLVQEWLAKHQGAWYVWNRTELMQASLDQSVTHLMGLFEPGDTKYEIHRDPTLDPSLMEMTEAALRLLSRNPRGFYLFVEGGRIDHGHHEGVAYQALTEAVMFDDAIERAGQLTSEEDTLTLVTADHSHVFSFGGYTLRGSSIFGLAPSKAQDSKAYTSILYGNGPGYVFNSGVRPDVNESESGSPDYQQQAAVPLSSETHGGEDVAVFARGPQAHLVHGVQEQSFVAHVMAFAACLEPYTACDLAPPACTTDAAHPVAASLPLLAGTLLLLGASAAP
testMethodNotes: activation of human intestinal alkaline phosphatase – biochemical, luminescence, set 2, selectivity assay for mouse IAP activator project, SAR follow-up (AID 588611)
conditionDetails: purified human IAP, CDP-Star luminescence, 30 min
Active and inactive are the calls of the source.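 Rule for the calls: active = mean EC50 below 100 µM; inactive = the rest.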
Labels: active, inactive

CN(C)S(=O)(=O)c1cccc(NC(=S)NCCC(=O)N2CCCC2)c1 | inactive
Cc1ccc(S(=O)(=O)N(C)C)cc1NC(=S)NC1CCN(Cc2ccccc2)CC1 | inactive
O=S(=O)(c1ccc(NC(=S)NCCC(c2ccccc2)c2ccccc2)cc1)N1CCCCC1 | active
COc1cccc(CNC(=S)Nc2ccc(S(=O)(=O)N(C)C)cc2)c1 | inactive
CCN(CC)c1ccc(C(=O)NC(=S)Nc2cc(S(=O)(=O)N3CCOCC3)ccc2-n2cncn2)cc1 | inactive
CN(C)S(=O)(=O)c1cccc(NC(=S)NC(c2ccccc2)c2ccccc2)c1 | active
O=c1c2ccccc2[nH]c(=S)n1-c1cccc(S(=O)(=O)N2CCCC2)c1 | inactive
COc1ccc(CNC(=S)Nc2ccc(S(=O)(=O)N3CCCCC3)cc2)cc1OC | inactive
CN(C)S(=O)(=O)c1cccc(NC(=S)NCCc2cccc(O)c2)c1 | inactive
Cc1ccc(C)c(NC(=S)Nc2ccc(S(=O)(=O)N3CCCCC3)cc2)c1 | inactive
CN(C)CC(C)(C)CNC(=S)Nc1cccc(S(=O)(=O)N(C)C)c1 | inactive
COc1ccccc1CNC(=S)Nc1ccc(S(=O)(=O)N(C)C)cc1 | inactive

====

Quick reference: EC50 of the listed items.
targetOfAssay: Intestinal-type alkaline phosphatase (Homo sapiens) (UniProt P09923)
testMethodNotes: activation of human intestinal alkaline phosphatase – biochemical, luminescence, set 2, selectivity assay for mouse IAP activator project, SAR follow-up (AID 588611)
conditionDetails: purified human IAP, CDP-Star luminescence, 30 min
Activity calls are given as the source filed them.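 Rule for the calls: active = mean EC50 below 100 µM; inactive = the rest.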
readoutKind: EC50

Cc1ccc(S(=O)(=O)N(C)C)cc1NC(=S)NCCCn1ccnc1 | > 100 µM (inactive)
CN(C)S(=O)(=O)c1cccc(NC(=S)NC(C)(C)CC(C)(C)C)c1 | 70.7 µM
CC1CCN(S(=O)(=O)c2ccc(NC(=S)NC(c3ccccc3)c3ccccc3)cc2)CC1 | > 100 µM (inactive)
O=C(NC(=S)Nc1cc(S(=O)(=O)N2CCOCC2)ccc1N1CCOCC1)c1ccco1 | > 100 µM (inactive)
O=S(=O)(c1ccc(NC(=S)NCC(c2ccccc2)c2ccccc2)cc1)N1CCCC1 | 58.5 µM
CN(C)S(=O)(=O)c1ccc(NC(=S)NCCc2ccccc2)cc1 | > 100 µM (inactive)
CN(C)S(=O)(=O)c1cccc(NC(=S)NCCCN2CCCC2=O)c1 | > 100 µM (inactive)
CN(CCc1ccccc1)C(=S)Nc1cccc(S(=O)(=O)N(C)C)c1 | > 100 µM (inactive)
COc1cccc(CCNC(=S)Nc2cccc(S(=O)(=O)N(C)C)c2)c1 | 82 µM
CN(C)S(=O)(=O)c1ccc(NC(=S)NCc2ccc(Cl)cc2)cc1 | > 100 µM (inactive)

====

We begin with a simple list: items and their reported EC50.
targetOfAssay: UniProt P09923
testMethodNotes: activation of human intestinal alkaline phosphatase – biochemical, luminescence, set 2, selectivity assay for mouse IAP activator project, SAR follow-up (AID 588611)
conditionDetails: purified human IAP, CDP-Star luminescence, 30 min
Active and inactive are the calls of the source.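 How the source made its calls: active means mean EC50 below 100 µM; inactive means the rest.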
readoutKind: EC50

CN(CCc1ccccn1)C(=S)Nc1cccc(S(=O)(=O)N(C)C)c1 | > 100 µM (inactive)
Cc1ccc(S(=O)(=O)N(C)C)cc1NC(=S)NC(=O)C12CC3CC(CC(C3)C1)C2 | > 100 µM (inactive)
CN(C)S(=O)(=O)c1cccc(NC(=S)NCC(c2ccccc2)c2ccccc2)c1 | 39.4 µM
CC1CC(NC(=S)Nc2cccc(S(=O)(=O)N(C)C)c2)CC(C)N1 (configuration not stated) | > 100 µM (inactive)
O=S(=O)(c1ccc(NC(=S)NCC(c2ccccc2)c2ccccc2)cc1)N1CCCCC1 | 72.1 µM
Cc1ccc(S(=O)(=O)N(C)C)cc1NC(=S)NC(C)CCC(C)C (configuration not stated) | 66.6 µM
COc1ccc(CCNC(=S)Nc2ccc(S(=O)(=O)N3CCCCC3)cc2)cc1 | 77.2 µM
O=C(NC(=S)Nc1cc(S(=O)(=O)N2CCOCC2)ccc1O)c1ccco1 | > 100 µM (inactive)
CCN(CC)S(=O)(=O)c1ccc(NC(=S)NCC(c2ccccc2)c2ccccc2)cc1 | 55.5 µM
CCN(CC)S(=O)(=O)c1ccc(NC(=S)NC(c2ccccc2)c2ccccc2)cc1 | 63.7 µM
CN(C)S(=O)(=O)c1ccc(NC(=S)NCCc2cccc(O)c2)cc1 | > 100 µM (inactive)
O=S(=O)(c1ccc(NC(=S)NCCC(c2ccccc2)c2ccccc2)cc1)N1CCCC1 | 62.2 µM
CN(C)S(=O)(=O)c1cccc(NC(=S)NCCc2ccc(F)cc2)c1 | > 100 µM (inactive)
Cc1ccc(CNC(=S)Nc2ccc(S(=O)(=O)N(C)C)cc2)cc1 | 89.6 µM
O=S(=O)(c1ccc(NC(=S)NC(c2ccccc2)c2ccccc2)cc1)N1CCCC1 | 58.2 µM
CN(C)S(=O)(=O)c1cccc(NC(=S)NCCc2cccc(F)c2)c1 | > 100 µM (inactive)
CN(C)S(=O)(=O)c1cccc(NC(=S)NCCN2CCCC2)c1 | > 100 µM (inactive)
CN(C)S(=O)(=O)c1ccc(NC(=S)NCCc2cccc(Br)c2)cc1 | 73.7 µM
CN(C)S(=O)(=O)c1ccc(NC(=S)NCCC(c2ccccc2)c2ccccc2)cc1 | 57.2 µM
CN(C)S(=O)(=O)c1cccc(NC(=S)NCc2ccc(Cl)cc2)c1 | 75.5 µM
O=C(CCc1ccccc1)NC(=S)Nc1cccc(S(=O)(=O)N2CCCC2)c1 | > 100 µM (inactive)
CC(CNC(=S)Nc1cccc(S(=O)(=O)N(C)C)c1)N1CCN(c2ccccc2)CC1 (configuration not stated) | > 100 µM (inactive)
CN(C)S(=O)(=O)c1cccc(NC(=S)NCCc2cccc(Br)c2)c1 | 65 µM
CCOc1cc(CCNC(=S)Nc2ccc(S(=O)(=O)N(C)C)cc2)ccc1OC | > 100 µM (inactive)
CN(C)S(=O)(=O)c1ccc(NC(=S)NC(c2ccccc2)c2ccccc2)cc1 | 62.4 µM
CCN(CC)S(=O)(=O)c1ccc(NC(=S)NCCC(c2ccccc2)c2ccccc2)cc1 | 41.3 µM
CN(C)S(=O)(=O)c1cccc(NC(=S)NCCc2ccccc2)c1 | > 100 µM (inactive)
CC1CCN(S(=O)(=O)c2ccc(NC(=S)NCC(c3ccccc3)c3ccccc3)cc2)CC1 | > 100 µM (inactive)
CCN(CC)CCCNC(=S)Nc1cccc(S(=O)(=O)N(C)C)c1 | > 100 µM (inactive)
CN(C)S(=O)(=O)c1ccc(NC(=S)NCCN2CCCC2)cc1 | > 100 µM (inactive)
Cc1ccccc1CNC(=S)Nc1ccc(S(=O)(=O)N(C)C)cc1 | > 100 µM (inactive)
CN(C)S(=O)(=O)c1cccc(NC(=S)NCCCn2ccnc2)c1 | > 100 µM (inactive)
CN(C)S(=O)(=O)c1cccc(NC(=S)NCCc2ccc(Br)cc2)c1 | 84.5 µM
Cc1ccc(CNC(=S)Nc2cccc(S(=O)(=O)N(C)C)c2)cc1 | > 100 µM (inactive)
CN(C)CCCNC(=S)Nc1cccc(S(=O)(=O)N(C)C)c1 | > 100 µM (inactive)
O=S(=O)(c1ccc(NC(=S)NC(c2ccccc2)c2ccccc2)cc1)N1CCCCC1 | 68.7 µM
CC(CCc1ccccc1)NC(=S)Nc1cccc(S(=O)(=O)N(C)C)c1 (configuration not stated) | 69.4 µM
COc1ccc(CCNC(=S)Nc2ccc(S(=O)(=O)N3CCCCC3)cc2)cc1OC | > 100 µM (inactive)
CN(C)S(=O)(=O)c1cccc(NC(=S)NCCC(c2ccccc2)c2ccccc2)c1 | > 100 µM (inactive)
Cc1ccc(S(=O)(=O)N(C)C)cc1NC(=S)NC(C)CCCC(C)C (configuration not stated) | 58 µM
O=S(=O)(c1ccc(NC(=S)NCc2cccc(F)c2)cc1)N1CCCCC1 | 76.8 µM
CC1CCN(S(=O)(=O)c2ccc(NC(=S)NCCC(c3ccccc3)c3ccccc3)cc2)CC1 | 53.1 µM
